Taken from paper PMC4619345.

# TARGET_ENTITY: T1, PhrB (Agrobacterium fabrum, UniProt A9CH39 1-507)
# T1 sequence: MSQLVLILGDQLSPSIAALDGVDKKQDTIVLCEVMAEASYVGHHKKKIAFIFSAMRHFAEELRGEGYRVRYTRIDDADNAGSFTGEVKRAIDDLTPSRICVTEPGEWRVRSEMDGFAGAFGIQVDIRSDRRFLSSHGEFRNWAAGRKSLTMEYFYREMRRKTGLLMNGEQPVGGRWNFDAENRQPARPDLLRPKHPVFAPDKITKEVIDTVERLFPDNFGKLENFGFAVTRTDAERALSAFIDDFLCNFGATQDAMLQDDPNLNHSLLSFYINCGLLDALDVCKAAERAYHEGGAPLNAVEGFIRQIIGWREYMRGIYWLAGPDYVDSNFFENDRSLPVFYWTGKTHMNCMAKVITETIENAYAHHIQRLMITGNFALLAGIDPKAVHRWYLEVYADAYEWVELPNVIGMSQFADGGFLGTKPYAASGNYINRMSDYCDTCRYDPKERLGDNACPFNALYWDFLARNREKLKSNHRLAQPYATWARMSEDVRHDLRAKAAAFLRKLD
# TEST_DESCRIPTION: EMSA; reduced FAD, darkness; EMSA in repair buffer (buffer 1: 50 mM Tris-HCl pH 7.0, 1 mM EDTA, 100 mM NaCl, 5% glycerol, 20 mM DTT; or buffer 2: pH 7.5, 10 mM DTT; which one not stated), 28 nM DNA, 10% TBE-PAGE at 4 C in darkness
# APPLIED_CONDITIONS: protein: recombinant; tags: C-terminal poly-His (pET21); label: 5' 32P; single strand
Consider the following binders and their measured Kd readings.
Give the value, in units of µM, as a plain number.

BINDER	Kd / µM
CATAGGTTGGCATA (ssDNA) [EMSA_1 undamaged]	25

Shifting focus to the binder that follows.
Per the record, CATAGGTTGGCATA (ssDNA, (6-4) photoproduct at T7-T8 (the only TT; 254 nm UV, HPLC purified)) [EMSA_1 (6-4)TT photoproduct] has Kd of 0.013
